test system: MDA-MB-435 melanoma; test: NCI-60 one-dose screen, 48 h (100 = growth as untreated, 0 = no growth, -100 = all killed); conditions: 10 µM unless noted
The panel holds about 83,000 compounds, 20% with a hit somewhere; the sample as a whole holds those more often.
attribute-measured: growth (%)
Write the number in % without appending the unit.

Record COc1ccc(CC(C)=C(c2ccc(OCCN(C)C)cc2)c2ccc(OCCN(C)C)cc2)cc1 has MDA-MB-435 melanoma growth equal to 61.9

Record COc1nccnn1 has MDA-MB-435 melanoma growth equal to 93

Record O=C1c2ccccc2-c2c1c1c(NCCCO)nc3ccccc3c1n2Cc1ccccc1 has MDA-MB-435 melanoma growth equal to 18.2

Record CC[C@@]12C=CCN3CC[C@]4(c5cc(NC(=O)COc6cc(OCC(=O)Nc7cc8c(cc7OC)N(C)[C@H]7[C@@](O)(C(=O)OC)[C@H](OC(C)=O)[C@]9(CC)C=CCN%10CC[C@]87[C@@H]%109)cc7oc(-c8ccccc8)cc(=O)c67)c(OC)cc5N(C)[C@@H]4[C@](O)(C(=O)OC)[C@H]1OC(C)=O)[C@H]32 has MDA-MB-435 melanoma growth equal to 42

Record O=C(Nc1ccc2cc3ccc(NC(=O)N4CCCCCC4)cc3nc2c1)N1CCCCCC1 has MDA-MB-435 melanoma growth equal to -82.4

Record CCN1C(=O)/C(=c2\sc3n(c2=O)NC2C(N=3)N(CC)C(=O)N2CC)c2ccccc21 (stereo not drawn) has MDA-MB-435 melanoma growth equal to -38.6

Record Cc1cc(NC(=O)c2cnc(N3CCN(CCOCCOCCOCCOCCC(=O)N[C@H](C(=O)N4C[C@H](O)C[C@H]4C(=O)N[C@@H](C)c4ccc(-c5scnc5C)cc4)C(C)(C)C)CC3)cn2)c2ncccc2c1 has MDA-MB-435 melanoma growth equal to -68.3

Record O=C(N/N=C/c1ccc(F)cc1)c1ccccc1Nc1cccc(C(F)(F)F)c1 has MDA-MB-435 melanoma growth equal to 100

Record O=C1Nc2ccccc2/C1=C\c1cccc(/C=C2/C(=O)Nc3ccccc32)n1 has MDA-MB-435 melanoma growth equal to -73.6

Record CC(c1ccccc1)n1ccnc1CO (stereo not drawn) has MDA-MB-435 melanoma growth equal to 98.4

Record CCOC(=O)c1ccc(Nc2ccnc(SCC(=O)c3ccc(C#N)cc3)n2)cc1 has MDA-MB-435 melanoma growth equal to 68.4

Record CC(=O)CCSc1ccc(OC(C)=O)cc1 has MDA-MB-435 melanoma growth equal to 104

Record FCc1nc2nc(Cl)c(Cl)nc2[nH]1 has MDA-MB-435 melanoma growth equal to 107

Record CC(=O)OCC(=O)[C@@]1(O)CC[C@H]2[C@@H]3CC(=C(Br)Br)C4=CC(=O)CC[C@]4(C)[C@H]3C(=O)C[C@@]21C has MDA-MB-435 melanoma growth equal to 100

Record Clc1cc(Cl)cc(N2N=C(c3cccc(Nc4ccncc4)c3)CC2c2ccccc2)c1 (stereo not drawn) has MDA-MB-435 melanoma growth equal to -38.9

Record C[C@H]1[C@H](C)CC[C@]2(CO)CC[C@]3(C)C(=CC[C@@H]4[C@@]5(C)Cc6c([nH]c7ccccc67)C(C)(C)[C@@H]5CC[C@]43C)[C@H]12 has MDA-MB-435 melanoma growth equal to 90.3

Record CCN1C(=O)N(CC)C2C1NN=c1s/c(=C3\C(=O)Nc4ccccc43)c(=O)n12 (stereo not drawn) has MDA-MB-435 melanoma growth equal to -27.3

Record Cc1cccc(Oc2ccc(Nc3ncnc4ccc(NC(=O)CNCCO)cc34)cc2Cl)c1 has MDA-MB-435 melanoma growth equal to 55.7
